Quick reference for Topoisomerase I inhibition relative to reference (%) among some compounds
Subject Of Test: DNA topoisomerase 1 (Homo sapiens) (UniProt P11387)
Sequence (P11387 whole entry): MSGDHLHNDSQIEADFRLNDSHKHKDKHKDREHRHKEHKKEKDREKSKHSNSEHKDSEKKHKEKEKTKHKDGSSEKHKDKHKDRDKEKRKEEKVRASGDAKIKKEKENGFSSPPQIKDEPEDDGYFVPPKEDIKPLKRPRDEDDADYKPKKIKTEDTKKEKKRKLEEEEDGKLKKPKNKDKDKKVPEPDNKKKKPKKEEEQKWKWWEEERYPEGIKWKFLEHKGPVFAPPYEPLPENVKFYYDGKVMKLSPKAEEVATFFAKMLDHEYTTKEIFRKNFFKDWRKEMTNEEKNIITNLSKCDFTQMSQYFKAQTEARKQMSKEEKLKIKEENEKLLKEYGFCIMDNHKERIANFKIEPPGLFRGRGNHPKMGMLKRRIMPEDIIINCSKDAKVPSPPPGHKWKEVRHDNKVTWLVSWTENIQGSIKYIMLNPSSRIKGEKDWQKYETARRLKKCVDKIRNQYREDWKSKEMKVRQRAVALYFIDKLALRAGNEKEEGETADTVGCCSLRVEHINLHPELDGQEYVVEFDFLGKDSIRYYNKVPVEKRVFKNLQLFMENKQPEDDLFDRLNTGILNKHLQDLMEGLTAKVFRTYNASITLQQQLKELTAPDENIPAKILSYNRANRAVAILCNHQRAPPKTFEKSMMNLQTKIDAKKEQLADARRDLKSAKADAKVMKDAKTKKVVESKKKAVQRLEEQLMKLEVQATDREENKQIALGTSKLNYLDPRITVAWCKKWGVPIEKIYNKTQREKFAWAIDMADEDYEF
Measurement Notes: Compound was tested for the inhibition of Topoisomerase I when administered at a dose of 25 ug/mL
Measured Attribute: Topoisomerase I inhibition relative to reference (%)

# Compound, Assay Value
measured = [
    ("CC[C@@]1(O)C(=O)OCc2c1cc1n(c2=O)Cc2c-1nc1ccccc1c2/C=N/NC(=O)C(C)N.Cl (stereo not given in full)", 98),
    ("CC[C@@]1(O)C(=O)OCc2c1cc1n(c2=O)Cc2c-1nc1ccccc1c2/C=N/NC(=O)C(N)CO.Cl (stereo not given in full)", 145),
    ("CC[C@@]1(O)C(=O)OCc2c1cc1n(c2=O)Cc2c-1nc1ccccc1c2/C=N/NC(=O)C(N)CC(C)C.Cl (stereo not given in full)", 136),
    ("CC[C@@]1(O)C(=O)OCc2c1cc1n(c2=O)Cc2c-1nc1ccccc1c2/C=N/NC(=O)CN.Cl", 116),
    ("CC[C@@]1(O)C(=O)OCc2c1cc1n(c2=O)Cc2c-1nc1ccccc1c2/C=N/NC(=O)C1CCCN1.Cl (stereo not given in full)", 100),
]

Source: ChEMBL document CHEMBL1127248
